Target: GST-NAP(1-166) (Arabidopsis thaliana, UniProt O49255 1-166)
Sequence: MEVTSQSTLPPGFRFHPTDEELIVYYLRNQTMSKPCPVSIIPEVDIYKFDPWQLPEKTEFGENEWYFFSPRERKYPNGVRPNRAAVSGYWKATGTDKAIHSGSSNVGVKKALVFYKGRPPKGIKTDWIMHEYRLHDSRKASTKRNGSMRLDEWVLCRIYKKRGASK
Assay: universal protein binding microarray (PBM); high values mean tight binding
Details: protein: recombinant; tags: GST; chain copies: 2; dsDNA, one strand shown
Returns y if the recorded binding signal is greater than or equal to 0.2 E-score, and n otherwise.

>>> qualitative_label("CGTATACG")
"y"
>>> qualitative_label("GACGCAAA")
"y"
>>> qualitative_label("AGCGTCAA")
"n"
>>> qualitative_label("ATACACGC")
"y"
>>> qualitative_label("GGAGGGAA")
"n"
>>> qualitative_label("ACGTTACG")
"y"
>>> qualitative_label("CCACGGAA")
"n"
>>> qualitative_label("GTAGTCAA")
"n"

----------
Catalogue of sequences with associated binding signal
Molecular target: GST-VND3 NAC domain (Arabidopsis thaliana, UniProt Q9FH59 12-162)
Sequence: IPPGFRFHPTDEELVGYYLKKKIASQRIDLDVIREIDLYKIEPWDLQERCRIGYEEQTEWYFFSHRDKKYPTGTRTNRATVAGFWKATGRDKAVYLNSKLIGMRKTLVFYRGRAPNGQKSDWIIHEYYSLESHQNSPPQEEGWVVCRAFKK
Experiment: universal protein binding microarray (PBM); high values mean tight binding
Conditions: protein: recombinant; tags: GST; chain copies: 2; dsDNA, one strand shown
readout_name: binding signal (E-score)

>>> reported_result("AACGTAAG")
0.289
>>> reported_result("CACGTAAA")
0.414
>>> reported_result("AGGGAAAA")
0.0874

----------
Molecular target: GST-NAP(1-166) (Arabidopsis thaliana, UniProt O49255 1-166)
Sequence: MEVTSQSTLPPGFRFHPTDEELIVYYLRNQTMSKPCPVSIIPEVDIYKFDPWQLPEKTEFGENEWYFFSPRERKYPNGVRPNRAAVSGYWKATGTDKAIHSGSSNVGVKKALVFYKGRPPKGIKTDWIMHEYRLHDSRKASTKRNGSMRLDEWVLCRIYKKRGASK
Test: universal protein binding microarray (PBM); transcription factors of Arabidopsis thaliana; high values mean tight binding
Details: protein: recombinant; tags: GST; chain copies: 2; dsDNA, one strand shown
Binning rule for recorded binding signal: LOW (below 0.1 E-score), MEDIUM (0.1 E-score to below 0.2 E-score), HIGH (0.2 E-score or more)

>>> qualitative_label("AGACGTAA")
"HIGH"
>>> qualitative_label("TCACGCCA")
"LOW"
>>> qualitative_label("ACGTAAAA")
"HIGH"
>>> qualitative_label("GGCGTGTA")
"MEDIUM"
>>> qualitative_label("TTACTCAA")
"LOW"
>>> qualitative_label("ACGTATCT")
"HIGH"
>>> qualitative_label("CACGTAAA")
"HIGH"
>>> qualitative_label("AGAGGTAA")
"LOW"
>>> qualitative_label("ATACGGCA")
"HIGH"
>>> qualitative_label("CACGCGAC")
"LOW"
>>> qualitative_label("GGATTGAC")
"LOW"
>>> qualitative_label("ACGCTTCC")
"LOW"
>>> qualitative_label("AGTCAACG")
"LOW"
>>> qualitative_label("GCGTGCAC")
"MEDIUM"
>>> qualitative_label("ATTACGTG")
"HIGH"
>>> qualitative_label("GCGTATAA")
"MEDIUM"
>>> qualitative_label("ACAGTCAA")
"LOW"
>>> qualitative_label("CTTACGCA")
"HIGH"
>>> qualitative_label("ACGTCATC")
"HIGH"
>>> qualitative_label("AGTTGACG")
"LOW"
>>> qualitative_label("ATAACGTA")
"MEDIUM"
>>> qualitative_label("GCCGTGTA")
"HIGH"
>>> qualitative_label("AACACGTC")
"HIGH"
>>> qualitative_label("GTACGTTA")
"MEDIUM"
>>> qualitative_label("GTTCCGTA")
"HIGH"
>>> qualitative_label("CACGGCAG")
"HIGH"
>>> qualitative_label("ACGTTAAC")
"HIGH"
>>> qualitative_label("GCGTGTAA")
"MEDIUM"
>>> qualitative_label("ACGCCATC")
"MEDIUM"
>>> qualitative_label("GACGCAAC")
"HIGH"
>>> qualitative_label("ATGGCGTA")
"MEDIUM"
>>> qualitative_label("GCACGTAA")
"HIGH"
>>> qualitative_label("GACGTAAC")
"HIGH"
>>> qualitative_label("AAGTCGTC")
"MEDIUM"
>>> qualitative_label("CTCACGCA")
"MEDIUM"
>>> qualitative_label("ATGCGTAA")
"MEDIUM"
>>> qualitative_label("GTGTCAAC")
"LOW"
>>> qualitative_label("CTAGCGTA")
"LOW"
>>> qualitative_label("TACGCAAA")
"HIGH"
>>> qualitative_label("GGTCATAC")
"MEDIUM"
>>> qualitative_label("GGAGGTAA")
"MEDIUM"
>>> qualitative_label("AACGTACG")
"HIGH"
>>> qualitative_label("CACGCTAG")
"LOW"
>>> qualitative_label("AACGTGTA")
"MEDIUM"
>>> qualitative_label("ACGTTATC")
"MEDIUM"
>>> qualitative_label("ACACACGC")
"LOW"
>>> qualitative_label("GACACGCA")
"HIGH"
>>> qualitative_label("GACGTGTA")
"HIGH"
>>> qualitative_label("AAGTAAGT")
"MEDIUM"
>>> qualitative_label("AAGGAAAT")
"LOW"
>>> qualitative_label("AACACGCA")
"HIGH"
>>> qualitative_label("GTTACGCA")
"HIGH"
>>> qualitative_label("ACGGAAAC")
"HIGH"
>>> qualitative_label("GCGAAGAC")
"LOW"
>>> qualitative_label("CGACACGC")
"MEDIUM"
>>> qualitative_label("CGTCAAAC")
"LOW"
>>> qualitative_label("AAGGGTAA")
"MEDIUM"
>>> qualitative_label("AATTGCGT")
"HIGH"
>>> qualitative_label("GTGGAGTA")
"LOW"
>>> qualitative_label("AAATACGT")
"HIGH"
>>> qualitative_label("CGTCAACG")
"MEDIUM"
>>> qualitative_label("ACACGTCA")
"HIGH"
>>> qualitative_label("ACGCAACG")
"HIGH"
>>> qualitative_label("AGTCAAGG")
"LOW"
>>> qualitative_label("ACTAGTCA")
"LOW"
>>> qualitative_label("ACGGCACT")
"HIGH"
>>> qualitative_label("AATACGCA")
"HIGH"
